tested on: DLD1; test: cell viability (CellTiter-Glo) relative to plate median (fraction of plate median); higher = more viable cells; conditions: 10 µM; treatment time 24 h; reporter: 7TFP
// classify: if (cell viability < 0.9) 1 else -1

In: Item C=CC(=O)Nc1cccc(Sc2nc(Nc3ccc(N4CCN(C)CC4)cc3)ncc2Cl)c1 : cell viability beneath 0.9, strictly?
Out: -1

In: Item CC[C@@H]1C(=O)N(C)c2cnc(Nc3ccc(C(=O)N[C@H]4CC[C@H](N5CCN(CC6CC6)CC5)CC4)cc3OC)nc2N1C(C)C : cell viability beneath 0.9, strictly?
Out: 1

In: Item COc1cccc(-c2cc(=O)c3ccccc3o2)c1N : cell viability beneath 0.9, strictly?
Out: -1

In: Item Nc1ncnc2c1c(-c1cccc(OCc3ccccc3)c1)cn2C1CC(CN2CCCC2)C1 (configuration not stated) : cell viability beneath 0.9, strictly?
Out: 1

* * *

tested on: DLD1; test: TCF/Wnt firefly luciferase reporter signal relative to plate median (fraction of plate median); higher = higher Wnt reporter signal; settings: 5 µM; treatment time 24 h; reporter: 7TFP
Value type: TCF/Wnt firefly luciferase reporter signal
Output: the number by itself.

Example compounds with recorded TCF/Wnt firefly luciferase reporter signal:
{"columns": ["Compound", "Numeric readout"],
 "data": [
  ["Nc1nnc(-c2cccc(Cl)c2Cl)c(N)n1", 0.923],
  ["CCCCC1C(=O)N(c2ccccc2)N(c2ccccc2)C1=O", 1.14],
  ["CC(Oc1ccccc1)C(=O)N[C@@H]1C(=O)N2[C@@H]1SC(C)(C)[C@@H]2C(=O)O (some centres undefined)", 1.07],
  ["CN1CCC[C@@H]1Cc1c[nH]c2ccc(CCS(=O)(=O)c3ccccc3)cc12", 0.945],
  ["CC(C)c1c(O)ccc2c1CCC1[C@@](C)(C=O)CCC[C@]21C (some centres undefined)", 1.03],
  ["OCCOCCN1CCN(C2=Nc3ccccc3Sc3ccccc32)CC1", 1.03],
  ["OCCN(CCO)c1nc(N2CCCCC2)c2nc(N(CCO)CCO)nc(N3CCCCC3)c2n1", 1.13],
  ["CC(=O)O[C@H]1CC[C@]2(C)C(C[C@@H](OC(C)=O)[C@]3(C)C4=CC(=O)O[C@H](c5ccoc5)[C@@]4(C)CCC23)C1(C)C (stereo partly drawn) [3-DEOXO-3beta-ACETOXYDEOXYDIHYDROGEDUNIN]", 1.05],
  ["COc1ccc(-c2cc(=O)c3c(O)c(OC)c(OC)c(OC)c3o2)cc1", 0.953],
  ["O=C(O)c1cn(C2CC2)c2cc(N3CCNCC3)c(F)cc2c1=O", 1.05]
]}

The reported value for COc1cc(-c2cc(=O)c3c(O)c(OC)c(OC)c(OC)c3o2)cc(OC)c1OC in terms of TCF/Wnt firefly luciferase reporter signal is 1.02

The reported value for COc1ccc(-c2cc(=O)c3c(O)cc(O[C@H]4O[C@H](CO[C@@H]5O[C@@H](C)[C@H](O)[C@@H](O)[C@H]5O)[C@@H](O)[C@H](O)[C@H]4O)cc3o2)cc1 in terms of TCF/Wnt firefly luciferase reporter signal is 1.02

The reported value for COc1cc2c(cc1OC)C1(O)C(=O)c3ccc(O)c(C(=O)O)c3OC1CO2 (centres undefined) in terms of TCF/Wnt firefly luciferase reporter signal is 0.914

The reported value for Cc1cc2c(s1)Nc1ccccc1N=C2N1CCN(C)CC1 in terms of TCF/Wnt firefly luciferase reporter signal is 1.05

The reported value for C[C@@H]1CC[C@@]23CCC4(C)[C@@](C=CC5[C@@]6(C)CCC(=O)C(C)(C)C6CC[C@]54C)(OC2=O)C3[C@H]1C (some centres undefined) in terms of TCF/Wnt firefly luciferase reporter signal is 0.836

The reported value for CNS(=O)(=O)Cc1ccc2[nH]cc(CCN(C)C)c2c1 in terms of TCF/Wnt firefly luciferase reporter signal is 1.07
